The reported numbers originate from ChEMBL document CHEMBL1144570.

Exercise: state measured inhibition for each of the compounds provided.
Biological target: Very-long-chain 3-oxoacyl-CoA reductase (Homo sapiens) (UniProt Q53GQ0)
Sequence (Q53GQ0 whole entry): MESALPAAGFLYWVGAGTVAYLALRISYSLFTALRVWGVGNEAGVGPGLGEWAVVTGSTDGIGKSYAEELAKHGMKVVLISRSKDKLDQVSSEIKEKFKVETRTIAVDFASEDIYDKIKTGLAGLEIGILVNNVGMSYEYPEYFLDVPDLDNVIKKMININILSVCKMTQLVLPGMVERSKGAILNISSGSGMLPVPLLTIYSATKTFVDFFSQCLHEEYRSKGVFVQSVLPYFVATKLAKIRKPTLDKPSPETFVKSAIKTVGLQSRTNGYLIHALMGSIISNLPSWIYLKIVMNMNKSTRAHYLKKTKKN
Assay: Inhibition of 17beta-HSD12 over-expressed in intact HEK293 cells at 1 uM
Assay type: cell-based
Express your answer in %, writing the number without its unit.

Q: Give the measured inhibition of `C[C@]12CC[C@@H]3c4ccc(O)cc4CC[C@H]3[C@@H]1CCC2=O` .
Ans: 0

Q: How about `CCCCN(C)C(=O)CCCCCS[C@@H]1C[C@@H]2[C@H](CC[C@]3(C)[C@@H](O)CC[C@@H]23)c2ccc(O)cc21` ?
Ans: 0

Q: And the next one, `CCCCN(C)C(=O)CCCCCC[C@H]1C[C@@H]2[C@H](CC[C@]3(C)C(=O)CC[C@@H]23)c2ccc(O)cc21` ?
Ans: 3

* * *

Biological target: 17-beta-hydroxysteroid dehydrogenase type 1 (Homo sapiens)
Assay: Inhibition of 17beta-HSD1 over-expressed in homogenated HEK293 cells at 0.1 uM
Format: cell-based
Output True for inhibition not less than 20%; output False otherwise.

Q: Could you please find out whether `CCCCN(C)C(=O)CCCCCC[C@H]1C[C@@H]2[C@H](CC[C@]3(C)[C@@H](O)CC[C@@H]23)c2ccc(O)cc21` has inhibition that meets 20% or exceeds it?
Ans: False

Q: Same again, this time with `CCCCN(C)C(=O)CCCCCC[C@H]1C[C@@H]2[C@H](CC[C@]3(C)C(=O)CC[C@@H]23)c2ccc(O)cc21`
Ans: False

Q: Next up: `CCCCN(C)C(=O)CCCCCC[C@@H]1C[C@@H]2[C@H](CC[C@]3(C)C(=O)CC[C@@H]23)c2ccc(O)cc21`
Ans: False

Q: Then what about the compound `CCCCN(C)C(=O)CCCCCS[C@@H]1C[C@@H]2[C@H](CC[C@]3(C)[C@@H](O)CC[C@@H]23)c2ccc(O)cc21` ?
Ans: True

Q: Continue with `CCCCN(C)C(=O)CCCCCC[C@@H]1C[C@@H]2[C@H](CC[C@]3(C)[C@@H](O)CC[C@@H]23)c2ccc(O)cc21`
Ans: False

Q: Entry `C[C@]12CC[C@@H]3c4ccc(O)cc4CC[C@H]3[C@@H]1CCC2=O` please
Ans: False

* * *

Assign inhibition to each entry below.
Target: Very-long-chain 3-oxoacyl-CoA reductase (Homo sapiens) (UniProt Q53GQ0)
Test: Inhibition of 17beta-HSD12 over-expressed in intact HEK293 cells at 1 uM
Assay type: cell-based
Quick reminder: number only, in %, skip the unit.

Q: What measured inhibition is associated with `CCCCN(C)C(=O)CCCCCC[C@H]1C[C@@H]2[C@H](CC[C@]3(C)[C@@H](O)CC[C@@H]23)c2ccc(O)cc21` on Very-long-chain 3-oxoacyl-CoA reductase (Homo sapiens) (UniProt Q53GQ0)?
Ans: 1

Q: Can you handle `CCCCN(C)C(=O)CCCCCC[C@@H]1C[C@@H]2[C@H](CC[C@]3(C)C(=O)CC[C@@H]23)c2ccc(O)cc21` next?
Ans: 0

Q: // query: `CCCCN(C)C(=O)CCCCCC[C@@H]1C[C@@H]2[C@H](CC[C@]3(C)[C@@H](O)CC[C@@H]23)c2ccc(O)cc21`
Ans: 1

Q: Quick one: `CCCCN(C)C(=O)CCCCCC[C@@H]1C[C@@H]2[C@H](CC[C@]3(C)[C@@H](O)CC[C@@H]23)c2cc(OC)c(O)cc21`
Ans: 0
